The following binders are listed with their measured pKd values.
# Assay Target: T1, LRRC7, Q96NW7
# T1 sequence (Q96NW7 1440-1537, limits assumed, looked up): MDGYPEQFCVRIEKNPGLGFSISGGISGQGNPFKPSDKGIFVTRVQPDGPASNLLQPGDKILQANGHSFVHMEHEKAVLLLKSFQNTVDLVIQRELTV
# Assay Details: holdup assay
# Design: key: below the threshold = too weak to quantify, mostly under pKd 3.1 to 4
# Experimental Setup: plain residues with an end cap or a label only (N-terminal biotin on a linker: ado-ado)
Reply with just the number.

INPUT: Requested field: pKd. Item: DTKNYKQTSV [CRIPT, Q9P021]
OUTPUT: 3.92

Next item in the queue.
INPUT: Requested field: pKd. Item: VLYPREGTEV [FOXI1, Q12951]
OUTPUT: 3.49
